Recorded melting point for the following compounds
Residues, ends and D or L forms follow the SMILES beside them. *: point of attachment. NHPhenethyl = c1ccc(CCN*)cc1
testReadout: melting point

>>> reportedvalue("Cc1cc(-c2cc(C(=O)O)c(=O)n(CC(C)C)n2)ccc1F")
"129 to 132 °C"
>>> reportedvalue("CCOC(=O)C1=C(N)NC(c2ccccc2)=CC1c1cccc([N+](=O)[O-])c1 (stereo unspecified)")
"171 to 172 °C"
>>> reportedvalue("Cc1c(C(=O)Nc2ccc(N3CCC(=O)CC3)c(C#N)c2)cnn1-c1ccc(Cl)cc1")
"238 °C"
>>> reportedvalue("CC(C)OC(=O)N1CCC(c2nc3cc(-c4ccc(S(C)(=O)=O)cc4F)ccc3o2)CC1")
"96.5 to 101 °C"
>>> reportedvalue("CCOCc1nc2c(N)nc3cccnc3c2n1CCCC(=O)N1CCOCC1")
"156 to 157 °C"
>>> reportedvalue("CC(=O)SCC(Cc1ccccc1)C(=O)Nc1ccc(C)c(C(=O)O)c1C (stereo unspecified)")
"187 to 189 °C"
>>> reportedvalue("CN(N)C1=NOCc2ccc(Cl)cc21")
"124 to 125 °C"
>>> reportedvalue("CC1COc2c(N3Cc4ccc(N)cc4C3)c(F)cc3c(=O)c(C(=O)O)cn1c23 (stereo unspecified)")
"272 to 276 °C"
>>> reportedvalue("COc1ccccc1CNC(=O)C1N(C(=O)C(O)C(Cc2ccccc2)NC(=O)c2cccc(O)c2C)CSC1(C)C (stereo unspecified)")
"123 to 125 °C"
>>> reportedvalue("CC[C@H](C)[C@H](NC(=O)[C@@H](N)CS)C(=O)NCCc1ccccc1 (H-Cys-Ile-NHPhenethyl)")
"156 to 159 °C"
>>> reportedvalue("COC(=O)c1ccc(C(O)c2c(C)c3cc(C(F)(F)F)ccc3n2S(=O)(=O)c2cccc(C(C)(C)C)c2)cc1 (stereo unspecified)")
"65 °C"

###

testReadout: melting point

>>> reportedvalue("CCOC(=O)c1nc(OC)cc(OC)n1")
"54 to 55 °C"
>>> reportedvalue("O=C1Nc2c(F)cc(F)cc2C1c1ncnc2nn(C3CCCC3)cc12 (configuration not stated)")
"296 to 297 °C"
>>> reportedvalue("COc1cc2c(cc1OC)C(C(=O)Nc1c(C(C)C)cccc1C(C)C)SCC2 (configuration not stated)")
"72 to 74 °C"
>>> reportedvalue("CCCCCCc1ncc(C(=O)O)s1")
"73 °C"
>>> reportedvalue("c1ccc(CON=C2CC(=NOCc3ccccc3)c3ccccc3-c3ccccc32)cc1")
"112 °C"
>>> reportedvalue("OC1CCc2cnc3c(c21)CCO3 (configuration not stated)")
"130 to 131 °C"
>>> reportedvalue("NCC1CC(CCC(=O)O)=NO1 (configuration not stated)")
"201 °C"

###

Recorded melting point for the following molecules
testReadout: melting point

>>> reportedvalue("Cn1c2ccccc2c2sc3ccccc3c21")
"175 to 176 °C"
>>> reportedvalue("CC(=O)OC1NC(=O)C1C(C)O[Si](C)(C)C(C)(C)C(C)C (stereo not given)")
"80 to 81 °C"
>>> reportedvalue("N#CCc1c[nH]c2ccc(NC(N)=O)cc12")
"200 to 204 °C"
>>> reportedvalue("O=C1c2cc3c(cc2CCC1(Br)Br)OCC3")
"138 to 142 °C"
>>> reportedvalue("CCOC(=O)C1CCc2sc3ccc(C#N)cc3c2C1 (stereo not given)")
"121 to 122 °C"
>>> reportedvalue("CCC(O)(c1ccc(-c2ccccc2)cc1)C1CC=CC1 (stereo not given)")
"82 to 84 °C"
>>> reportedvalue("CC(C)(CCCCCNS(=O)(=O)c1ccc(Cl)cc1)C(=O)O")
"132 to 133 °C"
>>> reportedvalue("CCOC(=O)c1c(Cl)ccc(C(=O)O)c1Cl")
"168 °C"
>>> reportedvalue("CSc1ccc(-n2c(-c3ccc(Cl)cc3)nc(SC)c(C#N)c2=O)cc1")
"206 to 207 °C"
>>> reportedvalue("Clc1ccc(-c2ccc(OCCCBr)cc2)cc1")
"103 to 105 °C"
>>> reportedvalue("CSc1ccnc(-c2nc(=O)c3ccccc3s2)c1")
"213 to 214 °C"
>>> reportedvalue("CC(C)(C)c1coc(N)c1C#N")
"86 °C"
>>> reportedvalue("O=C(COc1ccc(O)cc1)N1CCN(CC(O)Cn2c3ccccc3c3ccccc32)CC1 (stereo not given)")
"155 °C"
>>> reportedvalue("Cc1cc2n(C)c3ccncc3c(=O)n2n1")
"> 300 °C"
>>> reportedvalue("COC(=O)C(C)Nc1c([N+](=O)[O-])cnn1-c1c(Cl)cc(C(F)(F)F)cc1Cl (stereo not given)")
"123 to 130 °C"
>>> reportedvalue("CCOC(=O)c1cccc([N+](=O)[O-])c1NCc1ccc(-c2ccccc2C#N)cc1")
"119 to 120 °C"
>>> reportedvalue("CNS(=O)(=O)c1cc(C(=O)CCCCCl)cc2c1CCC2")
"107 to 109 °C"
>>> reportedvalue("COc1nc(SCc2ccc(F)cc2)cnc1NS(=O)(=O)c1cccc(Cl)c1Cl")
"119 to 120 °C"
>>> reportedvalue("CCOC(c1ccc(Cl)c2nc3n(c12)CCCN3c1ccc(OC)nc1C)C(F)(F)F (stereo not given)")
"168 to 170 °C"
>>> reportedvalue("O=C(O)c1ccc(NC(=O)c2ccccc2SSc2ccccc2C(=O)Nc2ccc(C(=O)O)cc2)cc1")
"> 285 °C"

All values here come from a melting point compilation (Tetko et al.; mined from patent text by program, amines drawn as free bases though some values may be those of a salt).
